# Tested on: livid amaranth
# ASSAY_METHOD_TEXT: Foliar spread test for upland field
# Format: in vivo, Amaranthus lividus
# Design: key: 0: normal development; 1: Less damaged; 2: Slightly damaged; 3: Moderately damaged; 4: Severely damaged; 5: All killed
# EXPERIMENTAL_PARAMETERS: foliar spray 500 ppm, 3 weeks, rank vs non-treated
Effects Livid amaranth reference

CCC(Oc1ccc(Cl)c(C(F)(F)F)c1)c1nc2cc(C#N)c(Cl)cc2o1 (stereo not shown) [Compound 534] | 5
CCC(Oc1cccc(C(F)(F)F)c1)c1nc2cc(F)c(C(F)(F)F)cc2o1 (stereo not shown) [Compound 471] | 5
CCC(Oc1ccc(F)c(C(F)(F)F)c1)c1nc2cc(F)c(Cl)cc2o1 (stereo not shown) [Compound 493] | 5

Switching to the query record.
Query string: Reported Effects Livid amaranth for CCCC(Oc1cccc(C#N)c1)c1nc2cc(S(C)(=O)=O)c(C)cc2o1 (stereo not shown) [Compound 492] : what is it?
Result string: 4

###

# Tested on: corn
# ASSAY_METHOD_TEXT: Soil treatment test for upland field
# Format: in vivo
# Parameters: key: 0: normal development; 1: Less damaged; 2: Slightly damaged; 3: Moderately damaged; 4: Severely damaged; 5: All killed
# EXPERIMENTAL_PARAMETERS: 500 g/ha, glass house 25° C., 3 weeks
Effects Corn reference
Answer with a number only.

Some compounds with recorded Effects Corn:
CCCC(Oc1cccc(C(F)(F)F)c1)c1nc2cc(F)c(C(F)(F)F)cc2o1 (centres unmarked) | 2
CCC(Oc1ccc(F)c(C(F)(F)F)c1)c1nc2cc(C#N)c(Cl)cc2o1 (centres unmarked) | 0
CCC(Oc1ccc(F)c(C(F)(F)F)c1)c1nc2cc(F)c(Cl)cc2o1 (centres unmarked) | 2
CCC(Oc1ccc(F)c(C(F)(F)F)c1)c1nc2ccc([N+](=O)[O-])cc2o1 (centres unmarked) | 0
CCC(Oc1ccc(F)c(C(F)(F)F)c1)c1nc2ccc(Cl)cc2o1 (centres unmarked) | 0
CCC(Oc1cccc(C(F)(F)F)c1)c1nc2cc([N+](=O)[O-])ccc2o1 (centres unmarked) | 0

Query string: Reported Effects Corn for CCC(Oc1ccc(F)c(C(F)(F)F)c1)c1nc2ccc(F)cc2o1 (centres unmarked) : what is it?
Result string: 0

Query string: Reported Effects Corn for CCC(Oc1cccc(C(F)(F)F)c1)c1nc2cc(C#N)c(Cl)cc2o1 (centres unmarked) : what is it?
Result string: 1

###

# Tested on: solgum
# ASSAY_METHOD_TEXT: Foliar spread test for upland field
# Assay type: in vivo
# Parameters: key: 0: normal development; 1: Less damaged; 2: Slightly damaged; 3: Moderately damaged; 4: Severely damaged; 5: All killed
# EXPERIMENTAL_PARAMETERS: foliar spray 500 ppm, 3 weeks, rank vs non-treated
Effects Solgum reference
Answer with a number only.

Some molecules with recorded Effects Solgum:
CCC(Oc1cccc(C(F)(F)F)c1)c1nc2cc(Cl)ccc2o1 (stereo not drawn) | 2
CCC(Oc1ccc(Cl)c(C(F)(F)F)c1)c1nc2cc(C#N)c(Cl)cc2o1 (stereo not drawn) | 2
CCCC(Oc1cccc(C#N)c1)c1nc2cc(S(C)(=O)=O)c(C)cc2o1 (stereo not drawn) | 1

Query string: Return Effects Solgum measured with solgum given this molecule: CCCC(Oc1ccc(F)c(C(F)(F)F)c1)c1nc2cc(Cl)ccc2o1 (stereo not drawn)
Result string: 1

Query string: Return Effects Solgum measured with solgum given this molecule: CCCC(Oc1cccc(C#N)c1)c1nc2cc(Cl)ccc2o1 (stereo not drawn)
Result string: 2

Query string: Return Effects Solgum measured with solgum given this molecule: CCC(Oc1cccc(C#N)c1)c1nc2cc(F)c(Cl)cc2o1 (stereo not drawn)
Result string: 1
